# study.system: HLA-A*69:01
# run.description: IEDB peptide-MHC binding, purified MHC/direct/fluorescence; filed as Kd, often an IC50 or EC50 that approximates it; bounds were set here for any values at or beyond the usual limits of such assays
# cond: source organism: Salmonella enterica
measurement.type: Kd

What is its Kd for HLA-A*69:01? Entry: "EEQTDPKTL"
≥ 20 µM

---

Each item that follows carries a reported pKd.
# study.system: HLA-B*27:03
# run.description: IEDB peptide-MHC binding, purified MHC/competitive/fluorescence; filed as Kd, often an IC50 or EC50 that approximates it; bounds were set here for any values at or beyond the usual limits of such assays
# cond: source organism: Entamoeba histolytica HM-1:IMSS
pKd: −log10 of the molar value.

>  <macromolecule.sequence>
EVRKAIEFV

>  <pKd>
≤ 4.70

$$$$

Now take the following sequence into account.
Given the entry "WAKLLKQKW" , what pKd was observed with HLA-B*27:03?
≤ 4.70
